Data provenance: patent US7074789B2

# Target Or Test System: AKT (Homo sapiens, UniProt Q9Y243)
# Construct: Kinases are expressed as either kinase domains or full length constructs; made in house
# Sequence (Q9Y243 whole entry, the tested form may be a part): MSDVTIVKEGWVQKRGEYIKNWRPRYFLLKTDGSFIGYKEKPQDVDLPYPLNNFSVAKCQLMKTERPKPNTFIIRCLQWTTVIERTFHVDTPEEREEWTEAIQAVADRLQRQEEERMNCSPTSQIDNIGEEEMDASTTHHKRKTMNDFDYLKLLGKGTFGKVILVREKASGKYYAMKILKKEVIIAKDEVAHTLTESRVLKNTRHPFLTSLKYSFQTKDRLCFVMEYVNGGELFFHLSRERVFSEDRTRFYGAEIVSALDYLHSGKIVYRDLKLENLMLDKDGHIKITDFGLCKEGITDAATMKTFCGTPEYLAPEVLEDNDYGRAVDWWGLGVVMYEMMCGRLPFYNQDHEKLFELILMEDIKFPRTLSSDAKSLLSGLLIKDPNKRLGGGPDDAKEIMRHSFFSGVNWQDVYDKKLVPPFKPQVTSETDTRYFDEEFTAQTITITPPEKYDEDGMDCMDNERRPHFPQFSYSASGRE
# Test Description: Kinase inhibition assay (33P transfer), AKT
# Format: biochemical
# Run Parameters: Table 2, kinase inhibition class; read-out: AKT3-1
Listed below: IC50 values for each entry.

Solved cases below.
COc1ccc(Nc2ncccc2-c2ncnc(Nc3cc(OC)c(OC)c(OC)c3)n2)c(C)c1 [Compound 1086]: > 9.48 µM
COc1cc(Nc2ncnc(Nc3cccc(C)c3)n2)cc(OC)c1OC [Compound 64]: > 12.2 µM
COc1cc(Nc2ncnc(-n3c(NC(C)c4ccc(F)cc4)nc4ccccc43)n2)cc(OC)c1OC (stereo not shown) [Compound 605]: > 8.73 µM
Cc1ccc2c(c1)CCCN2c1ncnc(Nc2ccc3ncsc3c2)n1 [Compound 773]: > 12 µM
COc1ccc(Nc2ncnc(Nc3cc(OC)c(OC)c(OC)c3)n2)cc1OC [Compound 36]: > 10.9 µM

Lab note: measured IC50 of COc1cc(Nc2ncnc(-n3c(=O)sc4ccccc43)n2)cc(OC)c1OC [Compound 424] was > 10.9 µM

Lab note: measured IC50 of COc1cc(Nc2ncnc(Nc3ccc4nn(Cc5ccccc5)cc4c3)n2)cc(OC)c1OC [Compound 555] was 4.96 to 7.24 µM

---

# Target Or Test System: Zap-70 (Homo sapiens)
# Construct: Kinases are expressed as either kinase domains or full length constructs; made in house
# Sequence (P43403 1-619): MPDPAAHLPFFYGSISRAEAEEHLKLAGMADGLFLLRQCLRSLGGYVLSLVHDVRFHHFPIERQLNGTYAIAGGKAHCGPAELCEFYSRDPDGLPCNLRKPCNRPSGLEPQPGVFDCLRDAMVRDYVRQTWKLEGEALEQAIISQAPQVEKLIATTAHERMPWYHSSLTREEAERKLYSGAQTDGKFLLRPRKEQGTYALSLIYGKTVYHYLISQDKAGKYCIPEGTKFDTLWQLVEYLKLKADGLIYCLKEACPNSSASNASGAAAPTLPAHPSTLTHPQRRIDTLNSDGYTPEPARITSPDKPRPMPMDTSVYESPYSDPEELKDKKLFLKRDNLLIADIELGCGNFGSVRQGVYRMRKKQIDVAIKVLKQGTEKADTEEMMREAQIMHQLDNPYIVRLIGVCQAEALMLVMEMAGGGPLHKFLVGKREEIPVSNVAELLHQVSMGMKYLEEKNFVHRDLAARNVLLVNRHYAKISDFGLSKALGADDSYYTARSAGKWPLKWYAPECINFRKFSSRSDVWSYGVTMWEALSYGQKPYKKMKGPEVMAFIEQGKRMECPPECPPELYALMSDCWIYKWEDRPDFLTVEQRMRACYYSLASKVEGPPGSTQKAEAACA
# Test Description: Kinase inhibition assay (33P transfer), Zap-70
# Type: biochemical
# Run Parameters: read-out: Zap-1
pIC50: −log10 of the molar value.
Listed below: pIC50 values for each entry.

Cc1cccc(Nc2ncnc(Nc3ccc4c(cnn4Cc4ccccc4)c3)n2)c1 [Compound 553]: 5.07 to 5.23
COC(=O)c1ccc(-c2cc(Nc3ncnc(Nc4cccc(CC(=O)O)c4)n3)[nH]n2)cc1 [Compound 604]: 5.10 to 5.27

Lab note: measured pIC50 of COC(=O)c1ccc(-c2cc(Nc3ncnc(Nc4cccc(CC(N)=O)c4)n3)[nH]n2)cc1 [Compound 577] was < 4.99

Lab note: measured pIC50 of COc1ccc(CNc2nc3ccccc3n2-c2ncnc(Nc3cc(OC)c(OC)c(OC)c3)n2)cc1OC [Compound 596] was < 5.08

Lab note: measured pIC50 of CCOc1cccc(Nc2ncnc(Nc3ccc(OC)c(OC)c3)n2)c1 [Compound 783] was < 4.91

Lab note: measured pIC50 of COc1cc(Nc2ncnc(N3c4ccccc4CCC3C)n2)cc(OC)c1OC (stereo not drawn) [Compound 612] was 4.96 to 5.07
